Reported Sum Excess HSA Score values for a set of molecules
test system: MOLM14 (D835Y) cells; test: Combination drug screening, Cell Titer Glo, MOLM14 (D835Y) cells; conditions: combination therapy of PF-06650833 (an IRAK4 selective inhibitor) and the named additional compound; MOLM14(D835Y) cells; 110 × 10 dataset;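 also: MOLM14 cells with FLT3 ITD plus D835Y, 500 per well in 1536-well plates, 10-point dose ranges, luminescent viability after 48 h, negative Excess HSA indicates synergy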
Reply with just the number.

Example entries and their recorded answers appear below.
smiles_str=N#Cc1ccnc(N2C(=O)CC[C@H]2C(=O)N(c2cncc(F)c2)[C@H](C(=O)NC2CC(F)(F)C2)c2ccccc2Cl)c1 measured_property="Sum Excess HSA Score" observed=−172.4
smiles_str=CC(=O)c1c(C)c2cnc(Nc3ccc(N4CCNCC4)cn3)nc2n(C2CCCC2)c1=O measured_property="Sum Excess HSA Score" observed=94.98
smiles_str=CC(C)Nc1cc(-c2c[nH]c(C(=O)N[C@H](CO)c3cccc(Cl)c3)c2)c(Cl)cn1 measured_property="Sum Excess HSA Score" observed=548.6
smiles_str=CC1(C)CCC(CN2CCN(c3ccc(C(=O)NS(=O)(=O)c4ccc(NCC5CCOCC5)c([N+](=O)[O-])c4)c(Oc4cnc5[nH]ccc5c4)c3)CC2)=C(c2ccc(Cl)cc2)C1 measured_property="Sum Excess HSA Score" observed=−1578

Now take the following molecule into account.
Provide value of Sum Excess HSA Score for this record tested with MOLM14 (D835Y) cells: `C[C@]12C=CC(=O)C=C1CC[C@@H]1[C@@H]2[C@@H](O)C[C@@]2(C)[C@H]1CC[C@]2(O)C(=O)CO` −431.6
